- assay.explanation: in vitro
- Format: cell-based, human
- condition.label: human
Where no end group is shown, it is not given here.
result.type: viability at 48 h, 12.5 μM (%)

>>> observed_value("FIGNLALSDLLAGVAYTANLLLKKRTLRKNDRKKR-NH2 [Sample 2]")
59.6

----------
- Tested on: human kidney cancer cell line (CAKI2)
- Format: cell-based
- condition.label: human, 48 h, 25 μM
Where no end group is shown, it is not given here.
Quick reference for Cell Viability (%) among some substances
result.type: Cell Viability (%)

>>> observed_value("FIGNLALSDLLAGVAYTANLLLKKRTLRKNDRKKR-NH2 [Sample 2]")
"0.4%"
>>> observed_value("WFLREGSMFVALSASVFSLLAIKKRTLRKNDRKKR-NH2 [Sample 3]")
"45.8%"
>>> observed_value("LFRAEYFLVLAVLNSGTNPIIKKRTLRKNDRKKR-NH2 [Sample 7]")
"66.3%"
>>> observed_value("VIIVLSVFIACWAPLFILLLLKKRTLRKNDRKKR-NH2 [Sample 6]")
"59.7%"
>>> observed_value("FLLISACWVISLILGGLPIMGWKKRTLRKNDRKKR-NH2 [Sample 4]")
"85.6%"
